Items are presented alongside their recorded hERG current change (%, negative = inhibition) at 10uM.
# study_system: human ether-à-go-go-related gene (hERG) potassium channel (human, UniProt Q12809);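 also: peak tail current of the secondary pulse compared with the same well before compound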
# Sequence (Q12809 whole entry, looked up): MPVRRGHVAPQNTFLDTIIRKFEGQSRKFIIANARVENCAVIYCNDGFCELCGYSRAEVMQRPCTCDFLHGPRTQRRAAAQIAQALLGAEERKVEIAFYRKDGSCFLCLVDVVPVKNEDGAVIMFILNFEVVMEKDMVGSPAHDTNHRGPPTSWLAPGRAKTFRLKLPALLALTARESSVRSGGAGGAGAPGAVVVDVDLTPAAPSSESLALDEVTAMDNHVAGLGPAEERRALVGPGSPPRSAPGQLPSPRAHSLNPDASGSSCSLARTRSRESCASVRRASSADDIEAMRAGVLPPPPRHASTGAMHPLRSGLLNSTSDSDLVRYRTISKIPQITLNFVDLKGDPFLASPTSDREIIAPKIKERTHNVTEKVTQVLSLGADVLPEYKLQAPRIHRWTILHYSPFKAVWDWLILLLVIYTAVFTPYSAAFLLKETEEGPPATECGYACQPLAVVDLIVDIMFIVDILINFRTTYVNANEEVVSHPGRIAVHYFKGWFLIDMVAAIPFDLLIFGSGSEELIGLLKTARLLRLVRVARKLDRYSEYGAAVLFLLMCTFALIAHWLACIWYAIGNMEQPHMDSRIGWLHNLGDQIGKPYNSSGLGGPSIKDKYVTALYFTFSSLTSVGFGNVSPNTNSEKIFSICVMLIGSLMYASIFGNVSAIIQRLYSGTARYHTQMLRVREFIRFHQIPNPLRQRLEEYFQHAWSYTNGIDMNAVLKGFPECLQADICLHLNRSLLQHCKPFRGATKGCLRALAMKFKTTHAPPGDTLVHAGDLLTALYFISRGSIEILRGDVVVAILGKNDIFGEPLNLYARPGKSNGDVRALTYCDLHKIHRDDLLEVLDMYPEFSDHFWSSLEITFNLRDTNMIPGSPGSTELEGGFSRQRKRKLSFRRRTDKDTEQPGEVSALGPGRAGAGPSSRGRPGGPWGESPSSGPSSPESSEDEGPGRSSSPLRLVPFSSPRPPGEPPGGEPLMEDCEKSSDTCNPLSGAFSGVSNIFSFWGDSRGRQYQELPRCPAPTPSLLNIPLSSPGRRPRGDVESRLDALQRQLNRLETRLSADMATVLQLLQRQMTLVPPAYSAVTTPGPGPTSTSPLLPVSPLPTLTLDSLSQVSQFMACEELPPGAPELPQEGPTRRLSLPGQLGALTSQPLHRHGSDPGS
# experiment: primary screen, population patch clamp on CHO cells stably expressing hERG; higher = less effect of the substance
The campaign covered roughly 310,000 compounds. About 14,000 (4.5%) showed an effect of 50% or more. Effects have a minus sign here. The sample as a whole holds a higher share of strong results than the screen did.
// note: answer is a bare numeric in %

Before answering, review these 8 worked examples.
1. Cc1ccc(OCC(O)CN2CCN(CCO)CC2)c(C)c1.Cl (centres unmarked)    4.18
2. Cc1ccc(OCC(O)CN2CCC(Cc3ccccc3)CC2)c(C)c1.Cl (centres unmarked)    -75.2
3. Cc1ccc2nc(SCc3ccc([N+](=O)[O-])cc3)[nH]c2c1    -65.1
4. COc1ccc(S(=O)(=O)N(C)c2ccc(C(=O)N3CCOCC3)cc2)cc1    -6.62
5. CC(C)(C)c1ccccc1NC(=S)NC1CCCC1    1.41
6. O=C(N/N=C/c1ccc(OC(F)F)cc1OC(F)F)c1cccc(S(=O)(=O)N2CCOCC2)c1    -33.1
7. CN(CC(=O)O/N=C(\N)c1ccccn1)S(=O)(=O)c1ccccc1    -4.98
8. O=C(O)c1ccccc1C(=O)c1ccc(Sc2ccc(Cl)cc2)c([N+](=O)[O-])c1    6.94

For the compound shown here, `CC1(C)O[C@@H]2[C@H](O1)[C@@H](COS(=O)(=O)[O-])O[C@H]2n1cnc2c(N)ncnc21.[K+]` , give the reported hERG current change (%, negative = inhibition) at 10uM. 15.7

For the compound shown here, `Cc1ccccc1N(CC(=O)NC1CCCCC1)C(=O)c1csnn1` , give the reported hERG current change (%, negative = inhibition) at 10uM. 8.46

For the compound shown here, `O=[N+]([O-])c1cc(CN2CCCCCC2)ccc1O` , give the reported hERG current change (%, negative = inhibition) at 10uM. 9.47

For the compound shown here, Cc1ccc(S(=O)(=O)C(CCC(=O)c2ccc(Cl)cc2)C(N)=O)cc1 (centres unmarked) , give the reported hERG current change (%, negative = inhibition) at 10uM. -28.9

For the compound shown here, `O=[N+]([O-])c1cc(CN2CCC(O)CC2)ccc1Cl` , give the reported hERG current change (%, negative = inhibition) at 10uM. 9.08

For the compound shown here, `COc1ccc(N(CC(=O)N2CCN(Cc3ccccc3)CC2)S(C)(=O)=O)cc1` , give the reported hERG current change (%, negative = inhibition) at 10uM. -3

For the compound shown here, `COc1ccc(C(=O)O)cc1S(=O)(=O)NCc1cccnc1` , give the reported hERG current change (%, negative = inhibition) at 10uM. 19.4

----------
# study_system: human ether-à-go-go-related gene (hERG) potassium channel (human);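 also: peak tail current of the secondary pulse compared with the same well before compound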
# experiment: primary screen, population patch clamp on CHO cells stably expressing hERG; higher = less effect of the substance
In all, about 310,000 compounds went through this assay and about 14,000 (4.5%) showed an effect of 50% or more. The effect is printed as a negative number. This is one part of a sample in which strong results are shown more often than they occur.
Decision: hERG current change (%, negative = inhibition) at 10uM compared against 10%; not below it gives YES, below it gives NO.

1) COc1cc(C)c(Cl)c(C)c1S(=O)(=O)NC1CC(C)(C)NC(C)(C)C1    NO

Is hERG current change (%, negative = inhibition) at 10uM for `O=S(=O)(NCc1ccco1)c1cccc2cccnc12` at or above 10%? NO

Is hERG current change (%, negative = inhibition) at 10uM for `C#CCOCCOCCOCCNc1nc(N2CCN(C(=O)CCCCCCCCCCNC(=O)Cn3cc(C[C@@H](C)O)nn3)CC2)nc(N2CCN(C(=O)CCCCCCCCCCNC(=O)[C@H](CCCN=C(N)N)n3cc(C[C@@H](C)CC)nn3)CC2)n1` at or above 10%? NO
